Entry source: ChEMBL document CHEMBL1127395

- Tested on: Enterobacter cloacae
- Protocol Summary: In vitro minimum inhibitory concentration for Enterobacter cloacae (ATCC-27508) by agar dilution method
- Format: functional
- Condition: Enterobacter cloacae; read-out: MIC
Could you mark each record Criterion met if its MIC falls strictly under 0.06 µg/mL, and Criterion not met if it equals or exceeds it?

Observe how each entry below is paired with its result.
CN[n+]1c(N)cc(N)nc1SCC1=C(C(=O)[O-])N2C(=O)C(NC(=O)/C(=N\OC(C)(C)C(=O)O)c3cnc(N)s3)C2SC1 (stereo unspecified) = Criterion not met
Cn1cn[n+]2c(SCC3=C(C(=O)[O-])N4C(=O)C(NC(=O)/C(=N\OC(C)(C)C(=O)O)c5cnc(N)s5)C4SC3)nc(N)cc12 (stereo unspecified) = Criterion met
CC[n+]1c(N)cc(N)nc1SCC1=C(C(=O)[O-])N2C(=O)C(NC(=O)/C(=N\OC(C)(C)C(=O)O)c3cnc(N)s3)C2SC1 (stereo unspecified) = Criterion met
C[n+]1cc(Cc2ccccc2)c(N)nc1SCC1=C(C(=O)[O-])N2C(=O)C(NC(=O)/C(=N\OC(C)(C)C(=O)O)c3cnc(N)s3)C2SC1 (stereo unspecified) = Criterion met

Let's switch to this molecule now.
MIC strictly < 0.06 µg/mL for this molecule? Cc1cccc(C)c1-[n+]1c(N)cc(N)nc1SCC1=C(C(=O)[O-])N2C(=O)C(NC(=O)/C(=N\OC(C)(C)C(=O)O)c3cnc(N)s3)C2SC1 (stereo unspecified) Criterion not met
